Data provenance is a melting point compilation (Tetko et al.; mined from patent text by program, amines drawn as free bases though some values may be those of a salt).

melting point values for the compounds below.

Given the entry C=CCNC(=O)N(N(CCCl)S(C)(=O)=O)S(C)(=O)=O , report its measured melting point.
105 to 106 °C

Given the entry CCCCNC1=NS(=O)(=O)c2sc(Cl)cc2N1 , report its measured melting point.
218 to 219 °C

Given the entry Clc1ccc(C(c2ccccc2)c2c(Cl)ncnc2Cl)c(Cl)c1 (stereo not given) , report its measured melting point.
138 to 139 °C

Given the entry Cn1c(Cl)cnc1C#N , report its measured melting point.
87 to 89 °C

Given the entry CCOCCn1c(N2CCCN(CCC3(c4cccc(Cl)c4)CCN(C(=O)c4cc(OC)c(OC)c(OC)c4)C3)CC2)nc2ccccc21 (stereo not given) , report its measured melting point.
66 to 78 °C

Given the entry CCOC(=O)Cc1c(Br)cnc2c([N+](=O)[O-])cccc12 , report its measured melting point.
163 to 164 °C

----------
melting point values for the compounds below.

compound: O=c1cc(-c2ccc(CO)cc2)oc2ncccc12
melting point: 218 to 219 °C
//
compound: CCCCCC1CCC(c2ccc(CC(=O)OC)cc2)CC1 (stereo unspecified)
melting point: 46 to 47 °C

Given the entry O=C(O)c1ccccc1OCC(F)(F)F , report its measured melting point.
85 to 86.5 °C

Given the entry O=S1(=O)NC=Nc2c(Br)cc(Br)cc21 , report its measured melting point.
289 to 292 °C

Given the entry COc1ccc(S(=O)(=O)C(C)(Cc2cccc(OCCN3CCCCC3)c2)C(N)=O)cc1 (stereo unspecified) , report its measured melting point.
74 °C

----------
melting point values for the compounds below.

Consider the reported melting point for these compounds:
compound: CS(=O)(=O)C(=C1CN(C(c2ccccc2)c2ccccc2)C1)c1cccc(C#N)c1
melting point: 152 °C
--
compound: CN(C)c1nc2n(n1)Cc1ccccc1-2
melting point: 164 to 166 °C
--
compound: O=C1NC(=O)C2CCCCC12 (configuration not stated)
melting point: 132 to 136 °C
--
compound: CC=CCn1c(C)c(C)c2cnnc(SCc3ccc(F)cc3F)c21
melting point: 122 to 127 °C
--
compound: CCCc1nc(C)c2c(Sc3ccc(NC(C)=O)cc3)nc(-c3ccccc3OCC)nn12
melting point: 226 to 228 °C

Given the entry CC1(C)C=C(c2ccccn2)c2cc(C(=O)O)ccc2O1 , report its measured melting point.
238 to 240 °C

Given the entry CCCOc1ccc(-c2cc(C)cn2-c2ccc(S(N)(=O)=O)cc2)cc1 , report its measured melting point.
142 to 145 °C

Given the entry Nc1ccc2ccc(-c3cccc(F)c3)nc2n1 , report its measured melting point.
160 °C

Given the entry CCOC(=O)c1cn(Nc2ccc(F)cc2F)c2nc(Cl)c(F)cc2c1=O , report its measured melting point.
210 to 212 °C

Given the entry O=S(=O)(c1c[nH]cc1-c1ccc(Cl)cc1)C(F)(F)F , report its measured melting point.
138 to 141 °C

Given the entry CC(=O)N(C)c1cc(Br)cc(S(=O)(=O)c2ccccc2)c1 , report its measured melting point.
147 to 148 °C

Given the entry O=C(Oc1ccccc1)N1CCC2(CC1)SC(c1ccc(F)cc1)c1ccccc12 (configuration not stated) , report its measured melting point.
200 to 201 °C

Given the entry COC(=O)C1CCCN1S(=O)(=O)c1ccc(C)cc1 (racemic) , report its measured melting point.
93 °C

----------
attributeMeasured: melting point

Consider the reported melting point for these compounds:
compound: COc1cccc(OC)c1C(=O)P(=O)(c1ccccc1)c1ccccc1
measured: 124 to 126 °C

compound: Oc1ccc2c(Cl)cc(-c3ccccc3)nc2c1
measured: 190 to 192 °C

compound: Nc1[nH]nc(-c2ccc(Cl)cc2)c1-c1ccncc1
measured: > 300 °C

Given the entry O=C(Nc1cccc2ccccc12)N[C@H]1C[C@H](C(=O)O)Nc2cc(Cl)cc(Cl)c21 (relative stereo) , report its measured melting point.
241 to 242 °C

Given the entry COc1ccc(S(=O)(=O)C(C)(CC2CCCCC2)C(=O)NO)cc1 (stereo not given) , report its measured melting point.
58 °C

----------
attributeMeasured: melting point

compound: CN(C)C(=O)Nc1ccc(OCC(=O)c2ccccc2)c(Cl)c1
attributeMeasured: melting point
measured: 148 to 150 °C
--
compound: CCOC(=O)c1cc2cc(Oc3ccc(S(C)(=O)=O)cc3)cc(OCc3ccccc3)c2[nH]1
attributeMeasured: melting point
measured: 148 to 149 °C
--
compound: OC1CSC(Oc2cccnc2-c2cccs2)C(O)C1O (stereo unspecified)
attributeMeasured: melting point
measured: 130 °C
--
compound: CCN1C(=O)CN=C(c2ccccc2F)c2cc(C(C)O)ccc21 (stereo unspecified)
attributeMeasured: melting point
measured: 48 to 50 °C

Given the entry CCCCCCCCCCCC(=O)N1c2ccccc2C(=O)N(C(C)C)S1(=O)=O , report its measured melting point.
57.5 to 58.5 °C

Given the entry Cc1cnc(I)c(OCc2ccccc2)c1 , report its measured melting point.
83 to 85 °C

Given the entry CCc1cn(C)cc(-c2ccc(Cl)c(C(F)(F)F)c2)c1=O , report its measured melting point.
121 to 123 °C

----------
melting point values for the compounds below.
Answer with a number only, understood to be in °C.

compound: NS(=O)(=O)c1cc(F)c(C(F)(F)F)cc1NC(=O)c1ccccc1
melting point / °C: 223

Then this compound:
Given the entry CC#CCOc1ccc(S(=O)C(C(=O)NO)c2ccc3ccccc3c2)cc1 (stereo not given) , report its measured melting point.
157

----------
attributeMeasured: melting point

molecule: CCCCCCCCCCOc1ccc(-c2ccc(OCc3ccccc3)c(F)c2)cc1F
attributeMeasured: melting point
measured: 95.8 to 98.6 °C

molecule: CC1CCC(C(C)C)C(OC(=O)CCC(=O)OC2CC(C)CCC2C(C)C)C1 (single isomer, unassigned; (-))
attributeMeasured: melting point
measured: 61 to 62 °C

Given the entry S=c1[nH]nnn1CCN1CCOCC1 , report its measured melting point.
226 to 228 °C

Given the entry COc1cccc(-n2c(=O)n(OCc3ccccc3)c(=O)c3cc(F)c(F)cc32)c1 , report its measured melting point.
157 to 158 °C

----------
attributeMeasured: melting point

compound: O=S(=O)(CCCCl)Nc1ccc(Oc2cccc3cccnc23)cc1
melting point: 161 to 162 °C

compound: COc1cc(C(=O)N2CCN(C(=O)CNC3CCN(Cc4ccccc4)CC3)C(c3ccc(Cl)c(Cl)c3)C2)cc(OC)c1OC (racemic)
melting point: 67 to 70 °C

compound: CCCCC1CCc2c(OCc3ccc4ccccc4n3)cccc2C1=O (stereo not given)
melting point: 97 to 98 °C

compound: CC(C)n1nc(-c2c(OC3CCCCC3)nc(N)nc2-c2ccccc2)ccc1=O
melting point: 173 to 175 °C

compound: O=C(NCc1ccncc1)c1ccccc1
melting point: 177 °C

compound: Cc1nc2sccn2c(=O)c1CCN1CCC(NC(=O)c2cc(Cl)c(N)c3c2OCCC3)CC1
melting point: 212 °C

Given the entry N#Cc1ncccc1OC1SCC(O)C(O)C1O (stereo not given) , report its measured melting point.
174 °C

Given the entry COc1ccc2c(Cc3c(Cl)cncc3Cl)nncc2c1C=CCCCc1ccccc1 , report its measured melting point.
121 to 123 °C

Given the entry CCOC(=O)Cc1ccc(NC(=O)C(COc2ccccc2)NS(=O)(=O)c2ccc(I)cc2)cc1 (racemic) , report its measured melting point.
178 to 180 °C

Given the entry COCOc1ccc(N(C)S(=O)(=O)c2ccc(C)cc2)c([N+](=O)[O-])c1 , report its measured melting point.
110 to 112 °C

Given the entry CCCCCS(=O)(=O)NC(=O)/C=C/c1ccc(OCCOC)cc1NC(=O)c1ccc(Cl)cc1Cl , report its measured melting point.
177 °C

Given the entry O=C(Nc1ccc(F)cc1F)NC1(c2cccs2)CCCCC1 , report its measured melting point.
175 to 177 °C

Given the entry CCCN1C(=O)C(=O)c2cc(SCCCc3ccc(C(=O)O)cc3)ccc21 , report its measured melting point.
140 to 142 °C

Given the entry Cc1c([N+](=O)[O-])ccc(N)c1C(=O)O , report its measured melting point.
183 to 184 °C

Given the entry c1ncn(-c2cc3cc[nH]c3cn2)n1 , report its measured melting point.
203 to 205 °C

Given the entry CC1Cc2cc(Cl)c(Cl)cc2C(c2ccc([N+](=O)[O-])cc2)=NN1 (stereo not given) , report its measured melting point.
182 to 184 °C

Given the entry COc1nc2cc(C)c(C)c(NS(C)(=O)=O)c2nc1OC , report its measured melting point.
219 °C

----------
melting point values for the compounds below.

Consider the reported melting point for these compounds:
compound: C=CCn1[nH]c2cc(OC)ccc2c1=O
melting point: 126 °C

compound: CC(=O)c1ccc(NC2=Nc3ccc(Cl)cc3CS2)cc1
melting point: 174 to 175 °C

compound: COc1ccc(COC(=O)C2N=CSCC2(C)O)cc1 (configuration not stated)
melting point: 102 to 103 °C

Given the entry CCCCCCCCc1ccc(C(=S)c2ccc(OCCCC)cc2O)cc1 , report its measured melting point.
77 to 79 °C

Given the entry c1ccc2c(c1)nc(-c1ccc3c(c1)OCO3)n2CC1CCCCC1 , report its measured melting point.
100 to 102 °C

Given the entry Cc1ccc(CC(=S)N2CCOCC2)cc1 , report its measured melting point.
182 to 185 °C

Given the entry CN1C(C(=O)OCCO)=C(O)c2ccccc2S1(=O)=O , report its measured melting point.
122 to 123 °C

Given the entry FC(F)(F)c1nnc(SCc2ccccc2Cl)s1 , report its measured melting point.
36 to 37 °C
